Ref: patent US20240239894A1

- Measured on: T1, Human B7-H4 ECD-Flag-His10 (monomeric) (human, UniProt Q7Z7D3 25-259)
- T1 construct: Minimally biotinylated for KinExA; also called hB7H4-ECD-Flag-His10; B7-H4-FLAG
- T1 sequence: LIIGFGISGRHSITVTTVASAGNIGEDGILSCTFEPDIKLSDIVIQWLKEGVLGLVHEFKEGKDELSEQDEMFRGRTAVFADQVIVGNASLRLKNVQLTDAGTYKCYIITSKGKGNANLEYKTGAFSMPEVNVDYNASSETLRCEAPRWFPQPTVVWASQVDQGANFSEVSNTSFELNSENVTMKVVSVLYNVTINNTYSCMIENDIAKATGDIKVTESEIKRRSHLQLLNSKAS
- Assay notes: Octet BLI, hIgG1 on Protein G (n = 1)
Please mark true if the recorded koff is equal to or greater than 0.002 s⁻¹, and false if it falls below.

Binder: ZY0EQD-E02 human IgG1 (antibody, V domains shown) VH: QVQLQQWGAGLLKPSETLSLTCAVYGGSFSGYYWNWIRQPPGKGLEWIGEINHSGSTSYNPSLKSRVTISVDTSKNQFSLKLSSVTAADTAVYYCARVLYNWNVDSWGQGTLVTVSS VL: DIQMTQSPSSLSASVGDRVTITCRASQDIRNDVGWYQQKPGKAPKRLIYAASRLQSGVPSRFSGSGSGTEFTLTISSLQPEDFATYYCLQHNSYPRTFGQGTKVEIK
Qualitative label: true
//
Binder: ZY0EOB-F05 human IgG1 (antibody, V domains shown) VH: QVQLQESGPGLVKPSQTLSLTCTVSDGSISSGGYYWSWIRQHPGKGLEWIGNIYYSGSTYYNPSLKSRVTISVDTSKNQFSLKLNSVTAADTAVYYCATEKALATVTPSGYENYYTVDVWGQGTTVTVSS VL: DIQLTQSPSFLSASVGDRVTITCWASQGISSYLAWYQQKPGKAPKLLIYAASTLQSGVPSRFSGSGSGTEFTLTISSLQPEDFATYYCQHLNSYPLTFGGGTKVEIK
Qualitative label: false
//
Binder: ZY0EPQ-E02 human IgG1 (antibody, V domains shown) VH: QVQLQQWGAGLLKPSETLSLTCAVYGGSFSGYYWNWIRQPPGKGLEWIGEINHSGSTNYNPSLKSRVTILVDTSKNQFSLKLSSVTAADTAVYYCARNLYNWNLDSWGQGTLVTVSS VL: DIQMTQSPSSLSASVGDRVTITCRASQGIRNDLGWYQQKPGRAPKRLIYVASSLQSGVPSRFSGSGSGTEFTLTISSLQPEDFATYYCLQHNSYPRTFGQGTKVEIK
Qualitative label: true
//
Binder: ZY0EP0-C07 human IgG1 (antibody, V domains shown, also called ZY0EPO-C07) VH: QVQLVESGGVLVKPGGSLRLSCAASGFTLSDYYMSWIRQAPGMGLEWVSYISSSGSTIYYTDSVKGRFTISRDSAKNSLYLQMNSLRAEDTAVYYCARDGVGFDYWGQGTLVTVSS VL: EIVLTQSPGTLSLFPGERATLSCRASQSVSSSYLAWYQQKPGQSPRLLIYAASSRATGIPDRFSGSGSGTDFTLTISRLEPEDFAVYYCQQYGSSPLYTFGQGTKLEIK
Qualitative label: false

Pending binder:
IN: Hi, just wondering whether ZY0EO5-E07 human IgG1 (antibody, V domains shown, also called ZY0E05-E07; E05-E07) VH: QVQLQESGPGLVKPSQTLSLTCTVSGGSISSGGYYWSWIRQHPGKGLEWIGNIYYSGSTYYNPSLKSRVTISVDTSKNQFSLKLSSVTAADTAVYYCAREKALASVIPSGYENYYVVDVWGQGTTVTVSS VL: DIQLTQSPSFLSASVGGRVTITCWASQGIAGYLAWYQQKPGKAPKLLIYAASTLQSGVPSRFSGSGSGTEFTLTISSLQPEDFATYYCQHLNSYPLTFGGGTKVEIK shows koff of 0.002 s⁻¹ or higher.
OUT: false
